# protocol: Bioavailability in rat
# Format: ADME, organism-based
# test_conditions: in vivo
parameter: bioavailability (%)
Provide the reading as a plain figure in %.

Task: Please indicate bioavailability recorded for COc1ccc(-n2nnnc2C(F)(F)F)cc1[C@H]1COC2(CCCNC2c2ccccc2)C1 (stereo partly specified)
Result: 16

----------
# protocol: Half-life in Dog
# Type: ADME, organism-based, Canis lupus familiaris
# test_conditions: in vivo
parameter: half-life (h)
Answer in h, number only, no unit symbol.

Task: Please report half-life for the following compound: COc1ccc(-n2nnnc2C(F)(F)F)cc1[C@H]1COC2(CCCNC2c2ccccc2)C1 (stereo partly specified)
Result: 2.7
